- Tested target: MKNK2 (human) (UniProt Q9HBH9)
- Sequence (Q9HBH9 whole entry, looked up): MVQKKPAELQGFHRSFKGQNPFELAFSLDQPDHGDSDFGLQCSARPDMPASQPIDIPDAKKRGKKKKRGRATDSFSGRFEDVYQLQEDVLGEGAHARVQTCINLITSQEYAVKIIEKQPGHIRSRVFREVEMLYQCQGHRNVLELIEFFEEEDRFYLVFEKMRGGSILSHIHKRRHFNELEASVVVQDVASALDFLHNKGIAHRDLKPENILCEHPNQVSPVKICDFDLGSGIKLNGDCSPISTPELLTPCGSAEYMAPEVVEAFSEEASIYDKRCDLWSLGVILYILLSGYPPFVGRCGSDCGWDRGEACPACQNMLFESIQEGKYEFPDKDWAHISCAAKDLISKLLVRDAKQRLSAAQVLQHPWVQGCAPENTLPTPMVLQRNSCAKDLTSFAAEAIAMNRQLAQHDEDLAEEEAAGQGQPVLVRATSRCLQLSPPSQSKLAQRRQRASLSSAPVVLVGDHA
- Assay remarks: KINOMEscan competition binding
- Experimental context: compound 10.0 µM
Measured quantity: kinase still bound, per cent of control (%)

| Substance smiles | Measured quantity | Value unit | Measurement |
| --- | --- | --- | --- |
| Cn1cc(C2=C(c3ccc(Cl)cc3Cl)C(=O)NC2=O)c2ccccc21 | kinase still bound, per cent of control | % | 89 |
| Cc1cnc(-c2cnc(NCCNc3ccc(C#N)cn3)nc2-c2ccc(Cl)cc2Cl)[nH]1 | kinase still bound, per cent of control | % | 82 |
| O=C1Nc2cc(Br)ccc2/C1=C1/Nc2ccccc2/C1=N\O | kinase still bound, per cent of control | % | 28 |
| COc1ccc(CNC(=O)Nc2ncc([N+](=O)[O-])s2)cc1 | kinase still bound, per cent of control | % | 100 |

====

- Tested target: EPHA4 (human)
- Assay remarks: KINOMEscan competition binding
- Experimental context: compound 10.0 µM
Listed next: entries and their corresponding kinase still bound, per cent of control.
Measured quantity: kinase still bound, per cent of control (%)

| Substance smiles | Measured quantity | Value unit | Measurement |
| --- | --- | --- | --- |
| COc1ccc(CNC(=O)Nc2ncc([N+](=O)[O-])s2)cc1 | kinase still bound, per cent of control | % | 100 |
| O=C1Nc2cc(Br)ccc2/C1=C1/Nc2ccccc2/C1=N\O | kinase still bound, per cent of control | % | 55 |
| Cc1cnc(-c2cnc(NCCNc3ccc(C#N)cn3)nc2-c2ccc(Cl)cc2Cl)[nH]1 | kinase still bound, per cent of control | % | 100 |
| Cn1cc(C2=C(c3ccc(Cl)cc3Cl)C(=O)NC2=O)c2ccccc21 | kinase still bound, per cent of control | % | 100 |

====

Quick reference for kinase still bound, per cent of control among some compounds
- Tested target: MAP4K5 (human) (UniProt Q9Y4K4)
- Sequence (Q9Y4K4 whole entry, looked up): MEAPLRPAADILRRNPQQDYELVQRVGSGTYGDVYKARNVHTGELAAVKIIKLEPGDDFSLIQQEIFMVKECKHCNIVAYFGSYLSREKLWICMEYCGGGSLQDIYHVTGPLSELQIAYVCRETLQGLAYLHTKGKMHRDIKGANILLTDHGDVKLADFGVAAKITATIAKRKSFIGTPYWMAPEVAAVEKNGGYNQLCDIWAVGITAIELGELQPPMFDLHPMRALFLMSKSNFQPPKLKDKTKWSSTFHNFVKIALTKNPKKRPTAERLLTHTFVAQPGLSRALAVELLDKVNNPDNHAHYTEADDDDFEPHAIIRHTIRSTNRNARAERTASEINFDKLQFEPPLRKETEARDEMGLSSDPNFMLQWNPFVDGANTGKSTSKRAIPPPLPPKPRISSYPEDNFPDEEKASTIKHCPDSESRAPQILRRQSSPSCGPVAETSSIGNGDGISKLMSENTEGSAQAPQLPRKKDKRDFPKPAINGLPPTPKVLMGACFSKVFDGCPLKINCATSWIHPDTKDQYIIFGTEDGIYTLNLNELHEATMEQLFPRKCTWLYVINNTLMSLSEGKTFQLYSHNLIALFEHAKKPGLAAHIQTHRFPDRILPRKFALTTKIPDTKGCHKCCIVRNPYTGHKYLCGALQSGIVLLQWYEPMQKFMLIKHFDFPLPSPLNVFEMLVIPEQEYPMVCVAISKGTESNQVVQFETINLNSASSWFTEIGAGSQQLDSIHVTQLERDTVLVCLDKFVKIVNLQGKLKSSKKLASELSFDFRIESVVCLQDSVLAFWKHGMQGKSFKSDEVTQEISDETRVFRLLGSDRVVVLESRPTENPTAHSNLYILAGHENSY
- Assay remarks: KINOMEscan competition binding
- Experimental context: compound 10.0 µM

| Substance smiles | Value unit | kinase still bound, per cent of control |
| --- | --- | --- |
| Cn1cc(C2=C(c3ccc(Cl)cc3Cl)C(=O)NC2=O)c2ccccc21 | % | 83 |
| COc1ccc(CNC(=O)Nc2ncc([N+](=O)[O-])s2)cc1 | % | 100 |
| Cc1cnc(-c2cnc(NCCNc3ccc(C#N)cn3)nc2-c2ccc(Cl)cc2Cl)[nH]1 | % | 100 |
| O=C1Nc2cc(Br)ccc2/C1=C1/Nc2ccccc2/C1=N\O | % | 9.2 |

====

Reported kinase still bound, per cent of control by item:
- Tested target: UniProt:Q13546
- Sequence (Q13546 whole entry, looked up): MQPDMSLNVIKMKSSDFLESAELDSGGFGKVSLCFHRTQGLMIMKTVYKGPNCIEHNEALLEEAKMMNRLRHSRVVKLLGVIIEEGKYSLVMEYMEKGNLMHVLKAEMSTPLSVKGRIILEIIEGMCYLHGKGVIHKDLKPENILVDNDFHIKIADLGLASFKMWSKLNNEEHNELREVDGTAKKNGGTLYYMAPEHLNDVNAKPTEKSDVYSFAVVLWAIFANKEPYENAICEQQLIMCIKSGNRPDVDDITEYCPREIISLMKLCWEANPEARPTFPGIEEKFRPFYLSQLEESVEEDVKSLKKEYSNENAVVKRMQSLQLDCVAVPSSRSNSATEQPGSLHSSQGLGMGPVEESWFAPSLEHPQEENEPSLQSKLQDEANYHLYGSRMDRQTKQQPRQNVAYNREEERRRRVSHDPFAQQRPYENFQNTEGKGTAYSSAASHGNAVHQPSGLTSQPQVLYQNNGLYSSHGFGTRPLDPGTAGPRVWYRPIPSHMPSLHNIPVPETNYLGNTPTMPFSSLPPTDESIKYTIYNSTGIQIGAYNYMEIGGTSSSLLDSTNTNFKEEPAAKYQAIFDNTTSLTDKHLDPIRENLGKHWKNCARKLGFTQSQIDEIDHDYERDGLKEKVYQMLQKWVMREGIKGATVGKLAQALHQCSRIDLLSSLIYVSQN
- Assay remarks: KINOMEscan competition binding
- Experimental context: compound 10.0 µM

| Substance smiles | kinase still bound, per cent of control [%] |
| --- | --- |
| Cn1cc(C2=C(c3ccc(Cl)cc3Cl)C(=O)NC2=O)c2ccccc21 | 100 |
| O=C1Nc2cc(Br)ccc2/C1=C1/Nc2ccccc2/C1=N\O | 2.4 |
| Cc1cnc(-c2cnc(NCCNc3ccc(C#N)cn3)nc2-c2ccc(Cl)cc2Cl)[nH]1 | 100 |
| COc1ccc(CNC(=O)Nc2ncc([N+](=O)[O-])s2)cc1 | 100 |

====

- Tested target: TYRO3 (human)
- Assay remarks: KINOMEscan competition binding
- Experimental context: compound 10.0 µM
Measured quantity: kinase still bound, per cent of control (%)

| Substance smiles | Measured quantity | Measurement |
| --- | --- | --- |
| COc1ccc(CNC(=O)Nc2ncc([N+](=O)[O-])s2)cc1 | kinase still bound, per cent of control | 93 |
| O=C1Nc2cc(Br)ccc2/C1=C1/Nc2ccccc2/C1=N\O | kinase still bound, per cent of control | 91 |
| Cn1cc(C2=C(c3ccc(Cl)cc3Cl)C(=O)NC2=O)c2ccccc21 | kinase still bound, per cent of control | 100 |
| Cc1cnc(-c2cnc(NCCNc3ccc(C#N)cn3)nc2-c2ccc(Cl)cc2Cl)[nH]1 | kinase still bound, per cent of control | 100 |

Where these numbers come from: the kinase profiling compilation of Christmann-Franck et al. (2016)
